// data source = PubChem BioAssay (Tox21)

assay: qHTS assay to identify small molecule agonists of the endoplasmic reticulum stress response signaling pathway - cell viability counter screen (AID 1159517); settings: ESRE-bla HeLa viability, CellTiter-Glo luminescence, 5 h; series mostly up to 61 µM;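 further: HeLa cells carrying an ER stress response element beta-lactamase reporter; nearly all actives have a fitted effect of over 50% in size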
Inconclusive results are not listed. Active and inactive are the calls of the source. The call rests on the fitted dose curve.
PROPERTY MEASURED: activity change, negative = cytotoxicity

Would you please look over these solved cases?
// activity change, negative = cytotoxicity value for CC(C)N(Cc1ccccc1)C(=O)C(C)(C)C : inactive

// activity change, negative = cytotoxicity value for O=P(O)(O)c1ccccc1 : inactive

// activity change, negative = cytotoxicity value for CCOC(=O)CC(SP(=S)(OC)OC)C(=O)OCC (configuration not stated) : inactive

// activity change, negative = cytotoxicity value for BrCCc1ccccc1 : inactive

// activity change, negative = cytotoxicity value for CCOC(=O)NC(C)(C)Cc1ccc(Cl)cc1 : inactive

// activity change, negative = cytotoxicity value for C=CC1(C)OC(=O)N(c2cc(Cl)cc(Cl)c2)C1=O (configuration not stated) : inactive

Let's switch to this compound now.
// activity change, negative = cytotoxicity value for NC(=O)CS(=O)C(c1ccccc1)c1ccccc1 (configuration not stated) : inactive
